Ref: paper PMC11269473

# experimental-system: recombinant human MAO-B (Homo sapiens, UniProt P27338)
# Construct: purchased Sigma-Aldrich; host or cells: insect cells (microsomes)
# Sequence (P27338 whole entry): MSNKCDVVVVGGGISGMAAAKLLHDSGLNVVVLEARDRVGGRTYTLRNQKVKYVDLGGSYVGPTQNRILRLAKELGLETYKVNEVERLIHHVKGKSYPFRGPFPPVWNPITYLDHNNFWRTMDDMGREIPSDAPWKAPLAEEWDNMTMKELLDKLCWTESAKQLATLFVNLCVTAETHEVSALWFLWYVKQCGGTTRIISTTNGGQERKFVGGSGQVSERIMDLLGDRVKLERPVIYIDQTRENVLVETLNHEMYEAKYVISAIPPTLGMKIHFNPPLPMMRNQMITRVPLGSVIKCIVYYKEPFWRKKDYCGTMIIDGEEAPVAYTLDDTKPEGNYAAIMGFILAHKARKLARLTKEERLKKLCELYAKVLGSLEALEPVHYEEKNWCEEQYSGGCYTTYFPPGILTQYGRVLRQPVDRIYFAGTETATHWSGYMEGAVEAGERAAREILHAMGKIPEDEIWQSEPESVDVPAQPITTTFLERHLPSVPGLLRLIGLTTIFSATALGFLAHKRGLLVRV
# run-description: Lineweaver–Burk plots / mode of MAO-B inhibition and Ki
# Assay type: biochemical
# condition-set: replot of slopes versus inhibitor concentration, Ki = −x when y = 0; kynuramine 15–250 µM; read-out: Ki, MAO-B, from replot of slopes of Lineweaver–Burk plots
result-type: Ki
Write the figure, then the unit, nothing else.

Would you kindly share the measured Ki for N#Cc1ccc(-c2onc3c(Cl)cc(Cl)cc23)cc1 ?
6.2 nM

---

# experimental-system: recombinant human MAO-A (Homo sapiens, UniProt P21397)
# Construct: purchased Sigma-Aldrich; host or cells: insect cells (microsomes)
# Sequence (P21397 whole entry): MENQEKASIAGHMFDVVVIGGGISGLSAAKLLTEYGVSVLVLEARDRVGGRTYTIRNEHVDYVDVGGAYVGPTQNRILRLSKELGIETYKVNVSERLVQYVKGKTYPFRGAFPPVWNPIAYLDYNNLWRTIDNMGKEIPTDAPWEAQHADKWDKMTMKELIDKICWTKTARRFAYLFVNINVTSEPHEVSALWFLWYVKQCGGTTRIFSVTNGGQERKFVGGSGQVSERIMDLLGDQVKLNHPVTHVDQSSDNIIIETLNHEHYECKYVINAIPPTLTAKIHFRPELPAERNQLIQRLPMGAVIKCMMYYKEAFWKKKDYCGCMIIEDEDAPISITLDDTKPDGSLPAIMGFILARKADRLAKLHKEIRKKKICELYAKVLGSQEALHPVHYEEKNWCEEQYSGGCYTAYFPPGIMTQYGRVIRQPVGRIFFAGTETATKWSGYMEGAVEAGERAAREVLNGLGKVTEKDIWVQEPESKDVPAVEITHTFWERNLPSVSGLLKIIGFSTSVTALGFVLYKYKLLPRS
# run-description: Lineweaver–Burk plots / mode of MAO-A inhibition and Ki
# Type: biochemical
# condition-set: global (shared) fitting of the inhibition data; read-out: Ki, MAO-A, global (shared) fitting to the Michaelis–Menten equation
result-type: Ki (nM)
One number for each entry, in nM.

Form field: reported Ki of c1ccc(-c2onc3ccc(C4OCCO4)cc23)cc1 [Compound 3l]
500
